# Tested target: Endothelin receptor type B (Homo sapiens)
pKi: −log10 of the molar value.
Recorded pKi split into classes low interval (below 4), middle interval (4 to below 5), high interval (5 or more)

| Smiles data | Tested target | Label class |
| --- | --- | --- |
| Cc1noc(NS(=O)(=O)c2ccccc2-c2ccc(-c3cncnc3)cc2)c1C | Endothelin receptor type B (Homo sapiens) | low interval |
| Cc1noc(NS(=O)(=O)c2ccccc2-c2ccc(-c3nccs3)cc2)c1C | Endothelin receptor type B (Homo sapiens) | middle interval |
| Cc1noc(NS(=O)(=O)c2ccccc2-c2ccc(-c3cnccn3)cc2)c1C | Endothelin receptor type B (Homo sapiens) | middle interval |
| Cc1noc(NS(=O)(=O)c2ccccc2-c2ccc(-c3nnco3)cc2)c1C | Endothelin receptor type B (Homo sapiens) | middle interval |
| Cc1noc(NS(=O)(=O)c2ccccc2-c2ccc(-c3ccccn3)cc2)c1C | Endothelin receptor type B (Homo sapiens) | high interval |

Now examine the next entry.
Prompt: Band assignment needed for Cc1noc(NS(=O)(=O)c2ccccc2-c2ccc(-c3cccnc3)cc2)c1C please.
Response: middle interval

====

Sequence of the target: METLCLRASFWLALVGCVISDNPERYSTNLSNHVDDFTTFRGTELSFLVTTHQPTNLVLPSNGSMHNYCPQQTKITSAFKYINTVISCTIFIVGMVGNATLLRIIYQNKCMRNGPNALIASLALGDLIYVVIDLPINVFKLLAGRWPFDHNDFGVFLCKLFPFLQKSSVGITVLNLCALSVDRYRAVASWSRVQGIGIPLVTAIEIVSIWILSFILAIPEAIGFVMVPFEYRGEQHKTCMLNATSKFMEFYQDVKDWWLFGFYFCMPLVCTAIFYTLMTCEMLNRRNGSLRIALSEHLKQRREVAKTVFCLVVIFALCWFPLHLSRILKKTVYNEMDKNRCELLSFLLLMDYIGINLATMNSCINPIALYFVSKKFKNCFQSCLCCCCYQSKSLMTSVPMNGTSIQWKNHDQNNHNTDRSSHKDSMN
Endpoint name: Ki (nM)
Quick reminder: number only, in nM, skip the unit.

| Smiles data | Display unit | Ki |
| --- | --- | --- |
| Cc1noc(NS(=O)(=O)c2ccccc2-c2ccc(-n3cccn3)cc2)c1C | nM | 6.7 |

Prompt: Request the reported Ki associated with Cc1noc(NS(=O)(=O)c2ccccc2-c2ccc(-c3cnccn3)cc2)c1C
Response: 6.2

Prompt: Request the reported Ki associated with Cc1noc(NS(=O)(=O)c2ccccc2-c2ccc(-c3cccnc3)cc2)c1C
Response: 3.3

Prompt: Request the reported Ki associated with Cc1noc(NS(=O)(=O)c2ccccc2-c2ccc(-c3nnco3)cc2)c1C
Response: 4

Prompt: Request the reported Ki associated with Cc1noc(NS(=O)(=O)c2ccccc2-c2ccc(-c3nnn[nH]3)cc2)c1C
Response: 3800

Prompt: Request the reported Ki associated with Cc1noc(NS(=O)(=O)c2ccccc2-c2ccc(-c3ccccn3)cc2)c1C
Response: 2.3

====

# Tested target: Endothelin receptor type B (Homo sapiens, UniProt P24530)
# Sequence (P24530 whole entry): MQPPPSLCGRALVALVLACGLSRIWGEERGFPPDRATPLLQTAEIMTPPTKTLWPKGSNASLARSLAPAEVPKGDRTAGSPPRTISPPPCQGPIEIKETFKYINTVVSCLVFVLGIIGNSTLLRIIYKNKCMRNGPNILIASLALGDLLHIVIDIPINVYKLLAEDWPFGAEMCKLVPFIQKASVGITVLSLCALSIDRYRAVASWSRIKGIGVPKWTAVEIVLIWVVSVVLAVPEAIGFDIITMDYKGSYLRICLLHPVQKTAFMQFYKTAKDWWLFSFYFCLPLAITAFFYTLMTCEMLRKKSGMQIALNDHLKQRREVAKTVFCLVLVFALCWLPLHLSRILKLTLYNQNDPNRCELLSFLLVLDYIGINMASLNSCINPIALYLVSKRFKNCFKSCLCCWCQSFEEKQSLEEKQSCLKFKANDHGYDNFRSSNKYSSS
Entries annotated with measured pKi
Scale explanation: pKi corresponds to minus log10 of a concentration expressed in moles per litre.

Recorded pKi, per entry:
| Smiles data | pKi |
| --- | --- |
| Cc1noc(NS(=O)(=O)c2ccccc2-c2ccc(-c3nccn3C)cc2)c1C | 3.92 |
| Cc1noc(NS(=O)(=O)c2ccccc2-c2ccc(-n3cccn3)cc2)c1C | 5.03 |

Prompt: Request the reported pKi associated with Cc1noc(NS(=O)(=O)c2ccccc2-c2ccc(-c3ccncn3)cc2)c1C
Response: 3.89
